Cited source for all entries: ChEMBL document CHEMBL1150282

Test: Ratio of drug uptake in heart to blood of Sprague-Dawley rat at 15 uCi, iv after 30 mins
Type: ADME, organism-based
Conditions: heart and blood (heart-to-blood ratio), read-out: Activity
The label depends only on Kp at 0.5 h: t if it is at least 10, f if it is smaller.

Is reported Kp at 0.5 h greater than or equal to 10 here: CC(C)(C)n1ncc(OCc2ccc(OCCCF)cc2)c(Cl)c1=O
f

Ok, now [2H]C([2H])(Oc1cnn(C(C)(C)C)c(=O)c1Cl)c1ccc(COC([2H])([2H])C([2H])([2H])F)cc1
t

Item: CCC(CF)Oc1ccc(COc2cnn(C(C)(C)C)c(=O)c2Cl)cc1 (configuration not stated)
f

Next up: CC(F)COc1ccc(COc2cnn(C(C)(C)C)c(=O)c2Cl)cc1 (configuration not stated)
t

Again, but for CC(C)(C)n1ncc(OCc2ccc(COCCF)cc2)c(Cl)c1=O
t

What would you report for CC(C)(C)n1ncc(OCc2ccc(CCCCF)cc2)c(Cl)c1=O ?
t

Could you do the same for CC(F)CCc1ccc(COc2cnn(C(C)(C)C)c(=O)c2Cl)cc1 (configuration not stated) , please?
t
